Listed next: entries and their corresponding inhibition of SARS-CoV-2 cytopathic effect.
# System: Vero E6 infected with SARS-CoV-2
# protocol-summary: inhibition of SARS-CoV-2 cytopathic effect; higher = more antiviral protection, active = above 15
# assay-conditions: 100 nM; 48 h
Please reply with the bare figure in % and do not write the unit itself.

Solved cases below.
compound="NC(=O)NCCN1CCN(c2cccc(C(F)(F)F)c2)CC1 [fluprazine]" target_desc="Vero E6 infected with SARS-CoV-2" readout_number=-1.67
compound="CC(=O)SC[C@@H](Cc1ccccc1)C(=O)NCC(=O)OCc1ccccc1 (racemic) [racecadotril]" target_desc="Vero E6 infected with SARS-CoV-2" readout_number=0.82
compound=CC(=O)OCC(=O)[C@@]1(O)CC[C@H]2[C@@H]3CCC4=CC(=O)CC[C@]4(C)[C@@]3(F)[C@@H](O)C[C@@]21C target_desc="Vero E6 infected with SARS-CoV-2" readout_number=0.97

Request: Look up inhibition of SARS-CoV-2 cytopathic effect: COc1ccccc1C1(O)CCN(CCCn2c3ccccc3c3ccccc32)CC1
Result: 2.5

Request: Next entry: Cc1ncc([N+](=O)[O-])n1CCO [metronidazole]
Result: 1.81

Request: Next entry: COc1ccc(CCC(=O)Nc2nc3ccc(Cl)cc3s2)cc1OC
Result: -2.66

Request: Next entry: Cc1ccc(N(CC2=NCCN2)c2cccc(O)c2)cc1 [phentolamine]
Result: -0.25

Request: Next entry: O=C(CC12CC3CC(CC(C3)C1)C2)Nc1cccc2nc(NCCNCCO)ccc12
Result: 0.57

Request: Next entry: CC[C@@]1([C@H]2O[C@H]([C@H]3O[C@@](O)(CO)[C@H](C)C[C@@H]3C)C[C@H]2C)CC[C@H]([C@@]2(C)CC[C@]3(C[C@H](O)[C@@H](C)[C@@H]([C@H](C)[C@H](OC)[C@@H](C)C(=O)O)O3)O2)O1
Result: 2.93

Request: Next entry: CN1CCC[C@@H]1CCSc1ccc(O)cc1
Result: 0.07

Request: Next entry: N#C[C@@H]1CCCN1C(=O)CNC12CC3CC(CC(O)(C3)C1)C2 [vildagliptin]
Result: -0.35

Request: Next entry: C=Cc1cc(O)cc2nc(-c3ccc(O)c(F)c3)oc12 [prinaberel]
Result: 1.61

Request: Next entry: c1ccc(CCCN2CCN(CCOC(c3ccccc3)c3ccccc3)CC2)cc1
Result: -0.18

Request: Next entry: CCN(CC)CCOC(=O)C1(c2ccccc2)CCCC1 [caramiphen]
Result: -1.97

Request: Next entry: CCC[C@H](NC(=O)/C(C#N)=C/c1cccc(Br)n1)c1ccccc1
Result: -0.09

Request: Next entry: Cc1c(NC(=O)c2cc3c(s2)CCCC3)cccc1-c1cn(C)c(=O)c(Nc2ccc(C3C(=O)N(C)CCN3C)cc2)n1 (stereo in doubt)
Result: 3.38

Request: Next entry: Nc1nc(=O)c(Br)c(-c2ccccc2)[nH]1 [bropirimine]
Result: 1.75

====

# System: Vero E6 infected with SARS-CoV-2
# protocol-summary: morphology score (similarity to uninfected cells); higher = more like uninfected cells
# assay-conditions: 24 h
Listed next: entries and their corresponding morphology score.
// keep it numeric: no unit symbol after the value

Solved cases below.
compound="COc1cc(OC)cc(-c2ccc3c(-c4ccc(F)cc4)n[nH]c3n2)c1 (10 µM)" target_desc="Vero E6 infected with SARS-CoV-2" experimental_endpoint="morphology score" readout_number=0.102
compound="Cc1cc(NC(=O)C(c2ccccc2)N2CCCc3ccccc32)no1 (stereo unspecified) (10 µM)" target_desc="Vero E6 infected with SARS-CoV-2" experimental_endpoint="morphology score" readout_number=0.018
compound="N#C[C@@H]1CCCN1C(=O)CNC12CC3CC(CC(O)(C3)C1)C2 [vildagliptin] (10 µM)" target_desc="Vero E6 infected with SARS-CoV-2" experimental_endpoint="morphology score" readout_number=0.00182

Request: Hi! What's the reported morphology score for NCCc1cc(O)c(O)cc1O [oxidopamine] (10 µM) on Vero E6 infected with SARS-CoV-2?
Result: 0.0957

Request: Next entry: N[C@@H](Cn1ccc(=O)n(Cc2ccccc2C(=O)O)c1=O)C(=O)O (10 µM)
Result: 0.28

Request: Next entry: C=C1/C(=C\C=C2/CCC[C@]3(C)[C@@H]([C@H](C)CCCC(C)(C)O)CC[C@@H]23)C[C@@H](O)C[C@@H]1O [calcitriol] (10 µM)
Result: 0.098

Request: Next entry: CC(=O)Nc1ncc([N+](=O)[O-])s1 [nithiamide] (10 µM)
Result: 0.0207

Request: Next entry: CC(C)C(N)C(=O)O (stereo in doubt) [L-valine] (10 µM)
Result: 0.0236

Request: Next entry: CCCCOc1ccc(OCCCN2CCOCC2)cc1 [pramoxine] (10 µM)
Result: -0.0144

====

# System: Vero E6 infected with SARS-CoV-2
# protocol-summary: morphology score (similarity to uninfected cells); higher = more like uninfected cells
# assay-conditions: 24 h
experimental-endpoint: morphology score
// keep it numeric: no unit symbol after the value

Request: Hi! What's the reported morphology score for C[C@@H](O[C@H]1OCCN(Cc2nn(P(=O)(O)O)c(=O)[nH]2)[C@H]1c1ccc(F)cc1)c1cc(C(F)(F)F)cc(C(F)(F)F)c1 [fosaprepitant-dimeglumine] (10 µM) on Vero E6 infected with SARS-CoV-2?
Result: 0.0215

Request: Next entry: CC(=O)N(C)c1cc(-c2ccnc3c(C(=O)c4cccs4)cnn23)ccc1F [lorediplon] (10 µM)
Result: -0.126

Request: Next entry: O=C(Nc1cccc2cccnc12)c1ccc(N2C(=O)[C@@H]3[C@H](C2=O)[C@@H]2C=C[C@H]3C2)cc1 [endo-IWR-1] (10 µM)
Result: -0.0752

Request: Next entry: Cc1[nH]cnc1-c1ccc(Cl)cc1 [lofemizole] (10 µM)
Result: -0.0942

Request: Next entry: N[C@@H](C(=O)N[C@@H]1C(=O)N2C(C(=O)O)=C(Cl)CC[C@H]12)c1ccccc1 [loracarbef] (10 µM)
Result: 0.167

Request: Next entry: CN1CCN(Cc2ccc(-c3cnc4[nH]cc(-c5ccc6[nH]ccc6c5)c4c3)cc2)CC1 (0.833333 µM)
Result: 0.84

Request: Next entry: O=S(=O)(O)c1ccc(-c2c3nc(c(-c4ccc(S(=O)(=O)O)cc4)c4ccc([nH]4)c(-c4ccc(S(=O)(=O)O)cc4)c4nc(c(-c5ccc(S(=O)(=O)O)cc5)c5ccc2[nH]5)C=C4)C=C3)cc1 (10 µM)
Result: -0.0273

Request: Next entry: CCNCCCNCCCCNCCCNCC (0.833333 µM)
Result: 0.312

Request: Next entry: CCCCCCCCCCCCCCCCCC(=O)OCC(O)CO (stereo unspecified) [monostearin] (10 µM)
Result: -0.0152

====

Listed next: entries and their corresponding inhibition of SARS-CoV-2 cytopathic effect.
# Tested on: Vero E6 infected with SARS-CoV-2
# protocol-summary: inhibition of SARS-CoV-2 cytopathic effect; higher = more antiviral protection, active = above 15
# assay-conditions: 10000 nM; 48 h
Please reply with the bare figure in % and do not write the unit itself.

Solved cases below.
compound=Cc1cccc(NC(=O)CN2CCC(c3ccccn3)CC2)c1 readout_unit=% readout_number=3.09
compound=O=Cc1cn(Cc2ccc(Cl)cc2)c2ccccc12 readout_unit=% readout_number=2.76
compound=Cc1cc2sc(NC(=O)Cc3ccccc3)nc2cc1Cl readout_unit=% readout_number=3.87
compound="CCOC(=O)COc1ccc2c(=O)cc(-c3ccccc3)oc2c1 [efloxate]" readout_unit=% readout_number=-0.78

Request: Look up inhibition of SARS-CoV-2 cytopathic effect: CC(=O)OCC(=O)[C@@]12N=C(C)O[C@@H]1C[C@H]1[C@@H]3CCC4=CC(=O)C=C[C@]4(C)[C@H]3[C@@H](O)C[C@@]12C
Result: 0.96

Request: Next entry: CC[C@H](C)[C@H](NC(=O)[C@H](Cc1ccc(O)cc1)NC(=O)[C@@H](NC(=O)[C@H](CCCNC(=N)N)NC(=O)[C@@H](N)CC(=O)O)C(C)C)C(=O)N[C@@H](Cc1c[nH]cn1)C(=O)N1CCC[C@H]1C(=O)O
Result: 2.67

Request: Next entry: CCCCC(=O)N(Cc1ccc(-c2ccccc2-c2nnn[nH]2)cc1)[C@H](C(=O)O)C(C)C
Result: 0.91

Request: Next entry: O=C1CCC[C@@H]2[C@H]3CCCN4CCC[C@@H](CN12)[C@@H]34
Result: -2.2

Request: Next entry: N#Cc1c(N)nc(SCc2csc(-c3ccc(Cl)cc3)n2)c(C#N)c1-c1ccc(OCCO)cc1
Result: -3.59

====

Listed next: entries and their corresponding inhibition of SARS-CoV-2 cytopathic effect.
# Test system: Vero E6 infected with SARS-CoV-2
# protocol-summary: inhibition of SARS-CoV-2 cytopathic effect; higher = more antiviral protection, active = above 15
# assay-conditions: 100 nM; 48 h
Please reply with the bare figure in % and do not write the unit itself.

compound=C[C@@H]1CN(Cc2ccc(F)cc2)[C@@H](C)CN1C(=O)c1cc2c(C(=O)C(=O)N(C)C)cn(C)c2cc1Cl readout_unit=% readout_number=-2.57

Request: Look up inhibition of SARS-CoV-2 cytopathic effect: CC1(C)CCC2=C(O1)c1ccccc1C(=O)C2=O
Result: -2.74

Request: Next entry: COc1cc(OC)c(C(=O)CCCCN2CCC3(CC2)NC(=O)NC3=O)cc1NS(=O)(=O)c1ccc(C(F)(F)F)cc1
Result: -0.19

Request: Next entry: COc1ccccc1N1CCN(CCN2C(=O)CC3(CCCC3)CC2=O)CC1
Result: 2.97

Request: Next entry: Cn1c(=O)cnn(CCCCN2CCN(c3ncccn3)CC2)c1=O
Result: 1.14

Request: Next entry: C=CC(=O)Nc1ccc2ncnc(Nc3ccc(OCc4cccc(F)c4)c(Cl)c3)c2c1
Result: -0.97

Request: Next entry: CCOC(=O)C1=C(C)NC(c2ccccc2)=C(C(=O)OCc2ccc([N+](=O)[O-])cc2)[C@@H]1C#Cc1ccccc1
Result: 0.42

Request: Next entry: CN(C)CCCO[C@@H]1[C@H]2OC(C)(C)O[C@H]2O[C@@H]1[C@H](O)CO
Result: -5.54

Request: Next entry: N[C@@H](C(=O)N[C@@H]1C(=O)N2C(C(=O)O)=C(Cl)CC[C@H]12)c1ccccc1
Result: 2.95

Request: Next entry: Nc1ccc(S(=O)(=O)Nc2nccs2)cc1
Result: 0.28

Request: Next entry: NCCc1cc(O)c(O)cc1O
Result: -2.01

Request: Next entry: S=C(NCc1ccc2c(c1)OCO2)N1CCN(c2ncnc3c2oc2ccccc23)CC1
Result: 1.46

Request: Next entry: OC(CCN1CCCCC1)(c1ccccc1)C1CC2C=CC1C2 (stereo not drawn)
Result: 0.23

Request: Next entry: COc1ccc2c(c1)CN(C)CC2c1ccc(Cl)c(Cl)c1 (stereo not drawn)
Result: -1.16

Request: Next entry: O=c1cc(N2CCOCC2)oc2c(-c3cccc4c3sc3ccccc34)cccc12
Result: 0.05

Request: Next entry: C[C@@H]1Cc2c([nH]c3ccccc23)[C@@H](c2c(F)cc(/C=C/C(=O)O)cc2F)N1CC(C)(C)F
Result: -2.47

Request: Next entry: OC[C@@H](O)[C@@H](O[C@@H]1O[C@H](CO)[C@H](O)[C@H](O)[C@H]1O)[C@H](O)[C@@H](O)CO
Result: 0.06

Request: Next entry: CC(Cc1ccccc1)(NC(=O)CN)c1ccccc1 (stereo not drawn) [remacemide]
Result: -0.89
